I'd appreciate it if you could supply Minimal Inhibitory Concentration (MIC) values for the items below.
# Tested on: Staphylococcus epidermidis
# procedure-summary: In vitro antimicrobial activity, agar dilution MIC
# Type: cell-based
# experimental-conditions: test organism 8, Staphylococcus epidermidis

Report Minimal Inhibitory Concentration (MIC), nothing else, for this molecule: Nc1c(F)c(N2CC3CCCNC3C2)c(F)c2c1c(=O)c(C(=O)O)cn2C1CC1 [Compound 3 (S,S)] 0.5

Report Minimal Inhibitory Concentration (MIC), nothing else, for this molecule: CN1CCCC2CN(c3cc4c(cc3F)c(=O)c(C(=O)O)cn4C3CC3)CC21 (stereo not shown) >2

Report Minimal Inhibitory Concentration (MIC), nothing else, for this molecule: CN1CCCC2CN(c3c(F)cc4c(=O)c(C(=O)O)cn(C5CC5)c4c3F)CC21 (stereo not shown) >2

Report Minimal Inhibitory Concentration (MIC), nothing else, for this molecule: Nc1c(F)c(N2CC3CCCNC3C2)c(F)c2c1c(=O)c(C(=O)O)cn2C1CC1 (racemic) [Compound 3 (racemic)] >2

Hello, the source for this data is patent US20120108557A1, in case you need it.
